assay: pharmacokinetics and brain/plasma ratio in mouse brain; assay type: in vivo, Crl:CD-1 mice; conditions: male, Crl:CD-1, inhaled or intranasal; mouse brain; 10 mg/kg IN
OUTCOME MEASURE: Cmax (ng/mL)
The response must be a number in ng/mL with no trailing unit.

Q: Can you look up the measured Cmax of Cc1cc(Cn2ncc3c(-c4cccc(C#N)c4F)nc(N)nc32)ccc1N [11o] for me?
Ans: 38.2

====

assay: pharmacokinetics and brain/plasma ratio in mouse brain; type: in vivo, Crl:CD-1 mice; settings: male, Crl:CD-1; mouse brain; 1 mg/kg PO
OUTCOME MEASURE: Tmax (h)
Report only the number, with the unit h understood.

Q: Requested read-out: Tmax. Entry: Cc1cc(Cn2ncc3c(-c4cccc(C#N)c4F)nc(N)nc32)ccc1N [11o]
Ans: 2
